The entries below come with measured Selectivity index (AChE/BChE) values attached.
SUBJECT_OF_TEST: AChE (Electrophorus electricus)
EXPERIMENT_NOTES: biochemical
Format: biochemical
EXPERIMENTAL_PARAMETERS: ratio AChE/BChE
Reply: number alone, nothing else.

Here is how some compounds turned out for Selectivity index (AChE/BChE).
CCCN(CCC)C(=O)c1ccc2nc(-c3cccc4ccccc34)oc2c1 = 0.50
O=C(c1ccc2nc(-c3ccc(-c4ccccc4)cc3)oc2c1)N1CCCCC1 = 0.37
O=C(c1ccc2nc(-c3ccco3)oc2c1)N1CCCCC1 = 0.41
CCN(CC)C(=O)c1ccc2nc(-c3cccc4ccccc34)oc2c1 = 0.36

Kindly consider the entry below.
Identify the measured Selectivity index (AChE/BChE) of O=C(c1ccc2nc(-c3cccs3)oc2c1)N1CCOCC1 for AChE (Electrophorus electricus).
0.47

---

The entries below come with measured IC50 values attached.
SUBJECT_OF_TEST: AChE (Electrophorus electricus, UniProt O42275)
Sequence (O42275 24-633): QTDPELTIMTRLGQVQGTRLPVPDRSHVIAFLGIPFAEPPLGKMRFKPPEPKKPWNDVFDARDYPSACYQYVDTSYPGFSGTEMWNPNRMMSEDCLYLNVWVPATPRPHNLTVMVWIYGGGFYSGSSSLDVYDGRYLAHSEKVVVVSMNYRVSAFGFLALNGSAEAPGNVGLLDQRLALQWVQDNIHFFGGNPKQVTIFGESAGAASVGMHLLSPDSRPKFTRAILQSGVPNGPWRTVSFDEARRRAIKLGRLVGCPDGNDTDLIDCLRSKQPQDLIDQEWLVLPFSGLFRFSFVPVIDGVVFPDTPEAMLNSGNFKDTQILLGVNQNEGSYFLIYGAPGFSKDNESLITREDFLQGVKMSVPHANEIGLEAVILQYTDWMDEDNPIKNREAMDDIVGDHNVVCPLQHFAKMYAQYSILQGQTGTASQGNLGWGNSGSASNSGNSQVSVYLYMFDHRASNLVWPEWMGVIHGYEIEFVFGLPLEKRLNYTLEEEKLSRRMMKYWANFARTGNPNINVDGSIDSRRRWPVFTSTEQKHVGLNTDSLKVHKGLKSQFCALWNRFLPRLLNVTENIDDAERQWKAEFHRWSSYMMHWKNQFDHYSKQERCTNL
EXPERIMENT_NOTES: biochemical
Assay type: biochemical
Procedure: These analogs were dissolved in DMSO at an initial concentration of 1 mg/mL. Around 1% of DMSO was present in the final reaction mixture. Acetylthiocholine iodide (AChI)/butyrylcholine iodide (BChI) were used as substrates for enzymatic reactions. […] Lineweaver-Burk graphs were used for the calculation of Ki and the other parameters as described in prior studies. […] All analyses were conducted independently in triplicate, and result data are expressed as mean values ± SD [59].

CN(C)C(=O)c1ccc2nc(-c3ccc[nH]3)oc2c1 = 36.8 nM
O=C(c1ccc2nc(-c3ccncc3)oc2c1)N1CCCCC1 = 28 nM
CCN(CC)C(=O)c1ccc2nc(-c3ccc(-c4ccccc4)cc3)oc2c1 = 30.8 nM
O=C(c1ccc2nc(-c3ccccc3)oc2c1)N1CCCC1 = 35.7 nM
CCCN(CCC)C(=O)c1ccc2nc(-c3ccccc3)oc2c1 = 48.8 nM

Entry under review: O=C(c1ccc2nc(-c3cccc4ccccc34)oc2c1)N1CCOCC1 . Reported IC50?
50.9 nM

Entry under review: CCCN(CCC)C(=O)c1ccc2nc(-c3cccs3)oc2c1 . Reported IC50?
30.1 nM

Entry under review: CCN(CC)C(=O)c1ccc2nc(-c3cccs3)oc2c1 . Reported IC50?
27.6 nM

Entry under review: O=C(c1ccc2nc(-c3ccncc3)oc2c1)N1CCCC1 . Reported IC50?
40.5 nM

Entry under review: CCN(CC)C(=O)c1ccc2nc(-c3ccncc3)oc2c1 . Reported IC50?
48.1 nM

Entry under review: O=C(c1ccc2nc(-c3cccs3)oc2c1)N1CCOCC1 . Reported IC50?
17.9 nM

Entry under review: CCCN(CCC)C(=O)c1ccc2nc(-c3cccc4ccccc34)oc2c1 . Reported IC50?
67 nM

Entry under review: CN(C)C(=O)c1ccc2nc(-c3ccc(-c4ccccc4)cc3)oc2c1 . Reported IC50?
33.2 nM

Entry under review: CCN(CC)C(=O)c1ccc2nc(-c3ccc[nH]3)oc2c1 . Reported IC50?
41.7 nM

Entry under review: CN(C)C(=O)c1ccc2nc(-c3cccc4ccccc34)oc2c1 . Reported IC50?
39.6 nM

Entry under review: O=C(c1ccc2nc(-c3ccc(-c4ccccc4)cc3)oc2c1)N1CCCCC1 . Reported IC50?
20.6 nM

Entry under review: O=C(c1ccc2nc(-c3ccncc3)oc2c1)N1CCOCC1 . Reported IC50?
24.3 nM

Entry under review: CCN(CC)C(=O)c1ccc2nc(-c3ccco3)oc2c1 . Reported IC50?
52.8 nM

Entry under review: O=C(c1ccc2nc(-c3ccc(-c4ccccc4)cc3)oc2c1)N1CCOCC1 . Reported IC50?
21.3 nM

Entry under review: O=C(c1ccc2nc(-c3ccc[nH]3)oc2c1)N1CCCC1 . Reported IC50?
26.7 nM
